Assay: Spectroscopic properties of the BDM library (absorbance and emission maxima)
Assay type: physicochemical
experimental readout: λmax (ABS)

Solved cases (10 shown):
{"columns": ["molecule", "λmax (ABS)"],
 "data": [
  ["COc1c(/C=C/C2=[N+]3C(=C(CCN)c4cccn4[B-]3(F)F)C(C)=C2)cc(C(C)(C)C)cc1C(C)(C)C [BDM-325]", "557 nm"],
  ["CC1=CC(/C=C/c2ccc(C)s2)=[N+]2C1=C(CCN)c1cccn1[B-]2(F)F [BDM-236]", "574 nm"],
  ["CC1=CC(/C=C/c2ccc(-c3cccc(Cl)c3)o2)=[N+]2C1=C(CCN)c1cccn1[B-]2(F)F [BDM-284]", "594 nm"],
  ["COc1ccc2[nH]cc(/C=C/C3=[N+]4C(=C(CCN)c5cccn5[B-]4(F)F)C(C)=C3)c2c1 [BDM-93]", "592 nm"],
  ["CC1=CC(/C=C/c2ccc(C)c(F)c2)=[N+]2C1=C(CCN)c1cccn1[B-]2(F)F [BDM-249]", "557 nm"],
  ["CC1=CC(/C=C/c2c(C)cccc2C)=[N+]2C1=C(CCN)c1cccn1[B-]2(F)F [BDM-243]", "543 nm"],
  ["CC1=CC(/C=C/c2ccc(N(C)C)cc2[N+](=O)[O-])=[N+]2C1=C(CCN)c1cccn1[B-]2(F)F [BDM-78]", "591 nm"],
  ["COc1cc(OC)c(/C=C/C2=[N+]3C(=C(CCN)c4cccn4[B-]3(F)F)C(C)=C2)cc1Br [BDM-247]", "571 nm"],
  ["CC1=CC(/C=C/c2ccc(-c3ccccn3)cc2)=[N+]2C1=C(CCN)c1cccn1[B-]2(F)F [BDM-88]", "565 nm"],
  ["CC1=CC(/C=C/c2ccc(Oc3cc(Cl)cc(Cl)c3)cc2)=[N+]2C1=C(CCN)c1cccn1[B-]2(F)F [BDM-308]", "556 nm"]
]}

Sure, the documented λmax (ABS) for COc1cccc(/C=C/C2=[N+]3C(=C(CCN)c4cccn4[B-]3(F)F)C(C)=C2)c1O [BDM-97] is 561 nm

Sure, the documented λmax (ABS) for Cc1cc(/C=C/c2ccc(-n3ccnc3)cc2)n2c1C(CCN)=C1C=CC=[N+]1[B-]2(F)F [BDM-8] is 561 nm

Sure, the documented λmax (ABS) for CC1=CC(/C=C/c2c3ccccc3c(C)c3ccccc23)=[N+]2C1=C(CCN)c1cccn1[B-]2(F)F [BDM-340] is 534 nm

Sure, the documented λmax (ABS) for CC1=CC(/C=C/c2ccc(C(C)(C)C)cc2)=[N+]2C1=C(CCN)c1cccn1[B-]2(F)F [BDM-177] is 556 nm

Sure, the documented λmax (ABS) for COc1ccc(/C=C/C2=[N+]3C(=C(CCN)c4cccn4[B-]3(F)F)C(C)=C2)cc1O [BDM-132] is 568 nm

Sure, the documented λmax (ABS) for Cc1cc(/C=C/c2cc(C)c3n2[B-](F)(F)[N+]2=CC=CC2=C3CCN)cc(C)c1OCc1ccccc1 [BDM-16] is 561 nm

---

Catalogue of λmax (ABS) readings, one per entry.
Assay: Spectroscopic properties of the BDM library (absorbance and emission maxima)
Format: physicochemical

Solved cases (3 shown):
{"columns": ["item smiles", "λmax (ABS)"],
 "data": [
  ["CC1=CC(/C=C/c2c(Cl)ccc(C)c2F)=[N+]2C1=C(CCN)c1cccn1[B-]2(F)F", "554 nm"],
  ["CC1=CC(/C=C/c2ccc3c(c2)OC(F)(F)O3)=[N+]2C1=C(CCN)c1cccn1[B-]2(F)F", "552 nm"],
  ["CC1=CC(/C=C/c2ccc(C)cc2Br)=[N+]2C1=C(CCN)c1cccn1[B-]2(F)F", "558 nm"]
]}

Sure, the documented λmax (ABS) for "Cc1cc(/C=C/c2ccccc2-c2ccccc2)n2c1C(CCN)=C1C=CC=[N+]1[B-]2(F)F" is 554 nm

---

Assay: Quantum yield measurements
Type: physicochemical
Details: referred to Rhodamine B in EtOH, excitation 510 nm, emission integrated 540-800 nm
Catalogue of φ (quantum yield) readings, one per entry.

Solved cases (6 shown):
{"columns": ["molecule", "experimental readout", "observed value"],
 "data": [
  ["CCCCc1ccc(/C=C/C2=[N+]3C(=C(CCN)c4cccn4[B-]3(F)F)C(C)=C2)cc1 [BDM-263]", "φ (quantum yield)", 0.26],
  ["CC1=CC(/C=C/c2ccc(Oc3cccc(Cl)c3)cc2)=[N+]2C1=C(CCN)c1cccn1[B-]2(F)F [BDM-290]", "φ (quantum yield)", 0.36],
  ["COc1cc(/C=C/c2cc(C)c3n2[B-](F)(F)[N+]2=CC=CC2=C3CCN)cc(OC)c1OC [BDM-1]", "φ (quantum yield)", 0.21],
  ["CCCc1ccc(/C=C/C2=[N+]3C(=C(CCN)c4cccn4[B-]3(F)F)C(C)=C2)cc1 [BDM-77]", "φ (quantum yield)", 0.54],
  ["CC1=CC(/C=C/c2cccc3c2OCO3)=[N+]2C1=C(CCN)c1cccn1[B-]2(F)F [BDM-231]", "φ (quantum yield)", 0.17],
  ["CC1=CC(/C=C/c2cccc(Oc3ccccc3)c2)=[N+]2C1=C(CCN)c1cccn1[B-]2(F)F [BDM-20]", "φ (quantum yield)", 0.47]
]}

Sure, the documented φ (quantum yield) for CCOc1ccc(/C=C/C2=[N+]3C(=C(CCN)c4cccn4[B-]3(F)F)C(C)=C2)cc1 [BDM-429] is 0.23

Sure, the documented φ (quantum yield) for Cc1cc(/C=C/c2ccc(-n3ccnc3)cc2)n2c1C(CCN)=C1C=CC=[N+]1[B-]2(F)F [BDM-8] is 0.34

Sure, the documented φ (quantum yield) for COc1ccc(/C=C/c2cc(C)c3n2[B-](F)(F)[N+]2=CC=CC2=C3CCN)c2ccccc12 [BDM-32] is 0.25

---

Assay: Quantum yield measurements
Type: physicochemical
Settings: referred to Rhodamine B in EtOH, excitation 510 nm, emission integrated 540-800 nm
Catalogue of φ (quantum yield) readings, one per entry.
Field format: numeric only.

Solved cases (7 shown):
{"columns": ["item smiles", "observed value"],
 "data": [
  ["CC1=CC(/C=C/c2ccc(C)cc2)=[N+]2C1=C(CCN)c1cccn1[B-]2(F)F", 0.27],
  ["CC1=CC(/C=C/c2ccccc2)=[N+]2C1=C(CCN)c1cccn1[B-]2(F)F", 0.39],
  ["COc1ccc(/C=C/C2=[N+]3C(=C(CCN)c4cccn4[B-]3(F)F)C(C)=C2)cc1Cl", 0.46],
  ["CC1=CC(/C=C/c2ccc(C)c(Cl)c2)=[N+]2C1=C(CCN)c1cccn1[B-]2(F)F", 0.26],
  ["CC1=CC(/C=C/c2cc(OCc3ccccc3)cc(OCc3ccccc3)c2)=[N+]2C1=C(CCN)c1cccn1[B-]2(F)F", 0.65],
  ["CC1=CC(/C=C/c2ccc(-c3ccccn3)cc2)=[N+]2C1=C(CCN)c1cccn1[B-]2(F)F", 0.21],
  ["CC1=CC(/C=C/c2cccc(N3CCCCC3)c2[N+](=O)[O-])=[N+]2C1=C(CCN)c1cccn1[B-]2(F)F", 0.03]
]}

Now for the compound whose φ (quantum yield) we want.
Sure, the documented φ (quantum yield) for "COc1ccc(/C=C/C2=[N+]3C(=C(CCN)c4cccn4[B-]3(F)F)C(C)=C2)cc1[N+](=O)[O-]" is 0.14

---

Test: Spectroscopic properties of the BDM library (absorbance and emission maxima)
Format: physicochemical
Catalogue of λmax (EM) readings, one per entry.
// units = nm; emit number, no label

Solved cases (3 shown):
{"columns": ["item smiles", "λmax (EM) [nm]"],
 "data": [
  ["CCCc1ccc(/C=C/C2=[N+]3C(=C(CCN)c4cccn4[B-]3(F)F)C(C)=C2)cc1", 569],
  ["CC1=CC(/C=C/c2cccc(I)c2)=[N+]2C1=C(CCN)c1cccn1[B-]2(F)F", 566],
  ["CC1=CC(/C=C/c2ccccc2OC(F)(F)F)=[N+]2C1=C(CCN)c1cccn1[B-]2(F)F", 563]
]}

Now for the compound whose λmax (EM) we want.
Sure, the documented λmax (EM) for "COc1ccc(Oc2cccc(/C=C/c3cc(C)c4n3[B-](F)(F)[N+]3=CC=CC3=C4CCN)c2)cc1" is 563

---

Assay: Spectroscopic properties of the BDM library (absorbance and emission maxima)
Format: physicochemical
experimental readout: λmax (ABS) (nm)
// units = nm; emit number, no label

Solved cases (5 shown):
{"columns": ["compound", "endpoint unit", "observed value"],
 "data": [
  ["CC1=CC(/C=C/c2cc(OCc3ccccc3)cc(OCc3ccccc3)c2)=[N+]2C1=C(CCN)c1cccn1[B-]2(F)F [BDM-331]", "nm", 554],
  ["COc1cc2ccccc2c(/C=C/C2=[N+]3C(=C(CCN)c4cccn4[B-]3(F)F)C(C)=C2)c1OC [BDM-301]", "nm", 563],
  ["CC1=CC(/C=C/c2cc(Br)ccc2O)=[N+]2C1=C(CCN)c1cccn1[B-]2(F)F [BDM-73]", "nm", 561],
  ["CCOc1c(/C=C/C2=[N+]3C(=C(CCN)c4cccn4[B-]3(F)F)C(C)=C2)cccc1OC [BDM-320]", "nm", 558],
  ["Cc1cc(/C=C/c2ccc(C)c3ccccc23)n2c1C(CCN)=C1C=CC=[N+]1[B-]2(F)F [BDM-36]", "nm", 568]
]}

Sure, the documented λmax (ABS) for CCOc1ccc(/C=C/C2=[N+]3C(=C(CCN)c4cccn4[B-]3(F)F)C(C)=C2)c(OCC)c1 [BDM-316] is 572

Sure, the documented λmax (ABS) for CC1=CC(/C=C/c2c(C)cccc2Cl)=[N+]2C1=C(CCN)c1cccn1[B-]2(F)F [BDM-285] is 544

Sure, the documented λmax (ABS) for COc1ccc(/C=C/C2=[N+]3C(=C(CCN)c4cccn4[B-]3(F)F)C(C)=C2)cc1Br [BDM-260] is 564
